Molecular target: T1, His-tagged CEACAM1 (human, UniProt P13688 35-428)
T1 construct: 45 kDa SPR analyte; also called CEACAM1-HIS; CEACAM1 analyte
T1 sequence: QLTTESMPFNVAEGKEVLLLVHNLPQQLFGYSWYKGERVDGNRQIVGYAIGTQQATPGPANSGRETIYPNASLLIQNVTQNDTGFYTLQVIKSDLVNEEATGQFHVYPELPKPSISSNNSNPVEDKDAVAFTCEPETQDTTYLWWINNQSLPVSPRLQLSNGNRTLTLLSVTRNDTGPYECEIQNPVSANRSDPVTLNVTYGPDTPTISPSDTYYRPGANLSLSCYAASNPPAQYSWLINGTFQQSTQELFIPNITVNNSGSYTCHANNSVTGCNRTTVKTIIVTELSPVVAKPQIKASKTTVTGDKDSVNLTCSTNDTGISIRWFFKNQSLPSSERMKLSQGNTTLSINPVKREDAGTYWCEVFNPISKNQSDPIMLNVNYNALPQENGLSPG
Experiment: SPR single-cycle, supernatant IgG captured
Each item that follows carries a reported koff.
resultType: koff (s⁻¹)

- binder: "8H3_9C2 (CDR1)/Vκ8 S29A (antibody, IgG4, V domains shown, IgG4 (S241P), kappa) VH: EVQLLESGGGLVQPGGSLRLSCAASEFTFSDHAMSWVRQAPGKGLEWVATISSGGTYTYYPDSVKGRFTISRDNSKNTLYLQMNSLKAEDTAMYYCARHDFDYFPYWFAHWGQGTLVTVSS VL: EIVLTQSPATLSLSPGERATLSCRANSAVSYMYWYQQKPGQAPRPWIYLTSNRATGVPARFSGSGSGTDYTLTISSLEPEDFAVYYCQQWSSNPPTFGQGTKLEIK"
  resultType: "koff"
  numericValue: 0.018
- binder: "8H3_9C2/CP08E05 (antibody, IgG4, V domains shown, IgG4 (S241P), kappa) VH: EVQLLESGGGLVQPGGSLRLSCAASEFTFSDHAMSWVRQAPGKGLEWVATISSGGTYTYYPDSVKGRFTISRDNSKNTLYLQMNSLKAEDTAMYYCARHGFDYFPYWFAHWGQGTLVTVSS VL: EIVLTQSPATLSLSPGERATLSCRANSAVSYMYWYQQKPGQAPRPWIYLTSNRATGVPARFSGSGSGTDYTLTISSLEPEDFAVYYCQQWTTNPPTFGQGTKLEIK"
  resultType: "koff"
  numericValue: 0.0071
